pEC50 values for the compounds below.
- experimental-system: G-protein coupled bile acid receptor 1 (Homo sapiens, UniProt Q8TDU6)
- experiment-summary: Agonist activity at human TGR5 transfected in HEK293T cells assessed intracellular cAMP level by HTRF assay
Reminder that pEC50 means the negative base-10 logarithm of the concentration expressed in mol/L.

Example compounds with recorded pEC50:
# sample-smiles, pEC50
records = [
    ("COc1ccc(N2CCN(C(=O)c3cncn3[C@H](C)c3ccccc3)CC2)cc1", 5.36),
    ("C[C@H](c1ccccc1)n1cncc1C(=O)N1CCN(c2ccccc2F)CC1", 5.96),
]

From here, focus on the item given below.
Q. What value of measured pEC50 is listed for C[C@H](c1ccccc1)n1cncc1C(=O)N1CCN(C2CC2)c2ccccc21 ?
A. 6.48

---

- experimental-system: G-protein coupled bile acid receptor 1 (Homo sapiens)
- experiment-summary: Agonist activity at human TGR5 transfected in HEK293T cells assessed intracellular cAMP level at 40 uM by HTRF assay
- Type: functional, cell-based
- condition-details: filed as agonist
Decision: Activity beneath 70% gives 1.0; Activity meeting or exceeding 70% gives 0.0.

Solved cases (8 shown):
# sample-smiles, group-label
records = [
    ("C[C@H](c1ccccc1)n1cncc1C(=O)Nc1ccc(F)cc1", 0.0),
    ("C[C@H](c1ccccc1)n1cncc1C(=O)N1CCN(c2ccccc2)CC1", 0.0),
    ("C[C@H](c1ccccc1)n1cncc1C(=O)N1CCOc2ccccc21", 0.0),
    ("COc1ccc(NC(=O)c2cncn2[C@H](C)c2ccccc2)cc1", 1.0),
    ("C[C@H](c1ccccc1)n1cncc1C(=O)N1CCN(C2CC2)c2ccccc21", 0.0),
    ("C[C@H](c1ccccc1)n1cncc1C(=O)Nc1ccccc1F", 1.0),
    ("C[C@H](c1ccccc1)n1cncc1C(=O)N1CCCc2ccccc21", 0.0),
    ("Cc1ccc(NC(=O)c2cncn2[C@H](C)c2ccccc2)cc1", 1.0),
]

Q. hey, is Activity for C[C@H](c1ccccc1)n1cncc1C(=O)Nc1ccc(Cl)cc1 lower than 70% or not?
A. 0.0

Q. hey, is Activity for C[C@H](c1ccccc1)n1cncc1C(=O)Nc1cccc(F)c1 lower than 70% or not?
A. 1.0

---

- experimental-system: G-protein coupled bile acid receptor 1 (Mus musculus, UniProt Q80SS6)
- Sequence (Q80SS6 whole entry): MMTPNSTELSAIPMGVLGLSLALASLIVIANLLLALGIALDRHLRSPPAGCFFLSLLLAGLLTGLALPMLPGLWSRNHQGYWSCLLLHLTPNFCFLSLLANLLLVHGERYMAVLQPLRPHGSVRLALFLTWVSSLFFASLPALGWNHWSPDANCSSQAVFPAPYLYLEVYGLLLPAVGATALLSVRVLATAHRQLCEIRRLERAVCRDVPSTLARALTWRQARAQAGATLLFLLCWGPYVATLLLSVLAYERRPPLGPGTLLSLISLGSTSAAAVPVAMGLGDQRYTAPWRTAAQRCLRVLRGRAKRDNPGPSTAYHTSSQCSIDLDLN
- experiment-summary: Agonist activity at mouse TGR5 transfected in HEK293T cells assessed intracellular cAMP level by HTRF assay
measurement-type: pEC50
Reminder that pEC50 means the negative base-10 logarithm of the concentration expressed in mol/L.

# sample-smiles, pEC50
rows = [
    ("O=C(c1cncn1Cc1ccc(Cl)cc1Cl)N1CCN(C2CC2)c2ccccc21", 6.21),
    ("O=C(c1cncn1Cc1ccccc1)N1CCN(C2CC2)c2ccccc21", 5.46),
    ("O=C(c1cncn1Cc1ccccc1Cl)N1CCN(C2CC2)c2ccccc21", 5.43),
]

Q. What value of measured pEC50 is listed for O=C(c1cncn1Cc1cc(Cl)ccc1Cl)N1CCN(C2CC2)c2ccccc21 ?
A. 6.08

---

Activity values for the compounds below.
- experimental-system: G-protein coupled bile acid receptor 1 (Homo sapiens)
- Sequence (whole entry): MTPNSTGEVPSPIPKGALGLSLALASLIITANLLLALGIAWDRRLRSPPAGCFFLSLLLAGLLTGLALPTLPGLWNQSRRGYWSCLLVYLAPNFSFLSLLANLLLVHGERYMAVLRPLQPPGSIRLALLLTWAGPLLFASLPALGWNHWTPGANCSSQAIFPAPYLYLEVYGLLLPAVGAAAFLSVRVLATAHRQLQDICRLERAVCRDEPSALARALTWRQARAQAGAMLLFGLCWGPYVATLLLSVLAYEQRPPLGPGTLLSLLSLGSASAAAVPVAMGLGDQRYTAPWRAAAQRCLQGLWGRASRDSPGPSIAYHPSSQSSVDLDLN
- experiment-summary: Agonist activity at human TGR5 transfected in HEK293T cells assessed intracellular cAMP level at 10 uM by HTRF assay
- Format: functional, cell-based
Numbers only; they are read as %.

# sample-smiles, measurement-type, units-text, recorded-result
rows = [
    ("C[C@H](c1ccccc1)n1cncc1C(=O)Nc1cccc(F)c1", "Activity", "%", 20.1),
    ("COc1ccc(NC(=O)c2cncn2[C@H](C)c2ccccc2)cc1", "Activity", "%", 25.3),
    ("C[C@H](c1ccccc1)n1cncc1C(=O)Nc1ccccc1F", "Activity", "%", 16.5),
    ("COc1ccccc1N1CCN(C(=O)c2cncn2[C@H](C)c2ccccc2)CC1", "Activity", "%", 17.4),
    ("C[C@H](c1ccccc1)n1cncc1C(=O)Nc1ccc(Cl)cc1", "Activity", "%", 37.7),
]

From here, focus on the item given below.
Q. Please provide the recorded Activity for Cc1ccc(NC(=O)c2cncn2[C@H](C)c2ccccc2)cc1 , tested on G-protein coupled bile acid receptor 1 (Homo sapiens).
A. 20.2
